Ki values for the compounds below.
Molecular target: 5-HT5A (Homo sapiens, UniProt P47898)
Sequence (P47898 whole entry): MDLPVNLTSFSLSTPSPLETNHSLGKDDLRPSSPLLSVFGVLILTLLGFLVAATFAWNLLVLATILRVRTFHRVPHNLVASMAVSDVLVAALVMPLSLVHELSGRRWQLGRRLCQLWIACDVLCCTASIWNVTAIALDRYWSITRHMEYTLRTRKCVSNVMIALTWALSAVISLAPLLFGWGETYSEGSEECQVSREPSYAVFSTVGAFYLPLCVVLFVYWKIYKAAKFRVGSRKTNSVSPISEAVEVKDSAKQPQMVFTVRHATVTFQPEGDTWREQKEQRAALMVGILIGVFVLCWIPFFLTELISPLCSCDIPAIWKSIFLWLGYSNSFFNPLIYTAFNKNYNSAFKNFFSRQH
Structures can show the parent of a compound that is named as a salt.

Some solved cases for reference:
COc1cccc(OC)c1Cc1cc2ccncc2nc1N [Example 37] = < 300 nM
CCCCNC1=Nc2ccccc2CN1Cc1ccccc1OC [Example 76, hydrochloride] = < 10000 nM
COc1cccc(OC)c1CN1Cc2ccccc2N=C1NCc1cccc2ccccc12 [Example 93, hydrochloride] = < 10000 nM

Now let's try a different one.
Item: COc1ccc2nc(N)c(Cc3ccccc3OC)cc2c1 [Example 7] Test system: 5-HT5A (Homo sapiens, UniProt P47898) Read-out: Ki Value: ?
< 300 nM
